system: EKVX NSCLC; assay: NCI-60 one-dose screen, 48 h (100 = growth as untreated, 0 = no growth, -100 = all killed); conditions: 10 µM unless noted
About 83,000 compounds went through this panel and 20% of them were active in at least one assay; those are over-represented in the sample as a whole. Active and inactive are the calls of the source. Rule for the calls: active = growth percent below 10; inactive = the rest.
Provide the recorded growth for the entries that follow.

### Prompt State the recorded growth for this entry: O=S(=O)(Nc1cc(Sc2nc3ccccc3s2)c(O)c2ccccc12)c1ccc2ccccc2c1
### Response 101% (inactive)

### Prompt Moving on to C=C(C)[C@@H]1CC[C@]2(C(=O)Nc3ccccn3)CC[C@]3(C)[C@H](CC[C@@H]4[C@@]5(C)CCCNC(C)(C)[C@@H]5CC[C@]43C)[C@@H]12
### Response 25.3% (inactive)

### Prompt Also need Cc1c(O)cc(-c2cnc(N/N=C/c3ccccc3)s2)c(O)c1C , thanks.
### Response 87.2% (inactive)

### Prompt Then what about the molecule CCCCCc1ccc(S(=O)(=O)Nc2cc(-c3csc(NC(C)=O)n3)ccc2N2CCN(C)CC2)cc1 ?
### Response 78.2% (inactive)

----------
system: ACHN renal; assay: NCI-60 one-dose screen, 48 h (100 = growth as untreated, 0 = no growth, -100 = all killed); conditions: 10 µM unless noted
The panel holds about 83,000 compounds, 20% with a hit somewhere; the sample as a whole holds those more often.
Assignment: determine reported growth for the given compounds.
The reply should be a number in %, with the unit left off.

### Prompt Which growth reading was recorded for the compound Fc1cc2[nH]ncc2c2c3c(c(-c4cn[nH]c4C(F)(F)F)nc12)CCCC3 ?
### Response 0.165

### Prompt Repeat with COc1ccccc1/C=C/C(=O)Nc1ccc(F)cc1
### Response 101

### Prompt Can you check CC(C)CCC[C@@H](C)[C@H]1CC[C@H]2[C@@H]3CC=C4c5sc(Nc6cc(C(F)(F)F)cc(C(F)(F)F)c6)nc5CC[C@]4(C)[C@H]3CC[C@]12C next?
### Response 106

### Prompt Try this compound next: CCCc1cc(=O)oc2c(C(=O)CC(C)C)c(O)c(CC=C(C)C)c(O)c12
### Response 27.5

### Prompt For CCOC(=O)C#Cc1c(C(=O)OCC)nnn1[C@@H]1O[C@H](COC)[C@@H](OC)[C@H]1OC then?
### Response -35.3

----------
system: T-47D breast; test: NCI-60 one-dose screen, 48 h; conditions: 10 µM unless noted
This is part of a sample that, as a whole, favours compounds with a hit. Of some 83,000 tested, about 20% had one in any assay. Calls of active or inactive are those of the source. Rule for the calls: active = growth percent below 10; inactive = the rest.
Tick one outcome: active, inactive

### Prompt Test call for this compound, please: CN(C)CCCn1c2c(c3cnccc3c1=O)C(=O)c1ccccc1-2
### Response active

### Prompt Next: O=C(Nc1cc(Cl)cc(Cl)c1)Oc1c(Cl)c(Cl)c(Cl)c(Cl)c1Cl
### Response inactive

### Prompt Again, but for CC(=O)O[C@H]1CC[C@]2(C)[C@H]3CC=C4[C@@H]5CC(C)(C)CC[C@]5(C(=O)N5CCN(CCC#N)CC5)CC[C@@]4(C)[C@]3(C)CC[C@H]2C1(C)C
### Response inactive

### Prompt Please give the result for CCCn1c(=S)sc2c(NNC(C)=O)nc(C)nc21 too.
### Response inactive

### Prompt What do you get for COc1ccc(-c2nc(SCC(=O)Nc3nc4ccc(C)cc4s3)[nH]c(=O)c2C#N)cc1OC ?
### Response inactive

----------
system: K-562 leukemia; test: NCI-60 one-dose screen, 48 h (100 = growth as untreated, 0 = no growth, -100 = all killed); conditions: 10 µM unless noted
About 83,000 compounds went through this panel and 20% of them were active in at least one assay; those are over-represented in the sample as a whole.
What growth was measured for each of the following?
// units = %; emit number, no label

### Prompt Endpoint output: growth of COc1ccc(C2CC(c3ccccc3)=NN2C(=O)c2cc(OC)c(OC)c(OC)c2)cc1O (stereo not given) . Value?
### Response 14.1

### Prompt Let us now turn to CCOC(=O)NC(=S)n1oc(=O)c2ccccc21
### Response 112

### Prompt Try CN(C)c1ccc(/C=C2\C=C(c3nc4ccccc4s3)OC2=O)cc1 next.
### Response 83.8

### Prompt Try N#Cc1c(-c2ccc(Br)cc2)nc2c(N=Nc3ccc(S(N)(=O)=O)cc3)c(N)nn2c1N next.
### Response 36.3

### Prompt And for CSc1nc(-c2ccco2)c(C#N)c(=O)n1C ?
### Response 101

### Prompt Now the same for CCN(CC)CCN1C(=O)c2c(c3c4ccccc4[nH]c3c3ccc4ccccc4c23)C1=O
### Response -33

### Prompt Ok, now COc1cc(/C=C/c2cn[nH]c2-c2ccc(C)cc2)cc(OC)c1OC
### Response 15.5

### Prompt Similarly, C/C(=C(\c1ccc(OCCN2CCCCCC2)cc1)c1ccc(OC(=O)c2ccccc2)cc1)c1ccc(Cl)cc1 ?
### Response -4.61

### Prompt Could you do the same for COc1cc(O)c2c(=O)c3c(CC=C(C)C)cc(OC)c(O)c3oc2c1 , please?
### Response 12.2

### Prompt CCCn1c(=S)sc2c(NNC(C)=O)nc(C)nc21 ?
### Response 68.8

----------
test system: U251 CNS; assay: NCI-60 one-dose screen, 48 h (100 = growth as untreated, 0 = no growth, -100 = all killed); conditions: 10 µM unless noted
About 83,000 compounds went through this panel and 20% of them were active in at least one assay; those are over-represented in the sample as a whole.
Attribute measured: growth (%)
Write down the numeric answer in % and omit the unit.

### Prompt Consider the molecule shown here: COC(=O)/C(CCC=C(C)C)=C1\[C@@H](OC(C)=O)C[C@@]2(C)[C@H]1C/C(=N/O)[C@H]1[C@@]3(C)CC/C(=N\O)[C@@H](C)[C@@H]3CC[C@@]12C What is its recorded growth?
### Response 91.5

### Prompt Same again, this time with Cn1cc(-c2nc3c(F)cc4[nH]ncc4c3c3c2CCCC3)c(C(F)(F)F)n1
### Response 59.8

### Prompt Input CC(=O)c1ccc(-n2cc(CN3CCN(c4cc5c(cc4F)c(=O)c(C(=O)O)cn5C4CC4)CC3)nn2)cc1
### Response 98.4

### Prompt Next record, please: CCCC(=O)NC(c1ccc2c(c1)OCO2)c1cc(Cl)c2cccnc2c1O (stereo not drawn)
### Response 17.3

### Prompt Queued: O=CN1N=C(c2cccc(Nc3ccnc4cc(Cl)ccc34)c2)CC1c1ccc(Cl)cc1 (stereo not drawn)
### Response 18.9

### Prompt Another molecule: O=C1O[C@@H](c2ccccc2Cl)[C@@H]2c3cc4c(cc3CCN12)OCO4
### Response 86

### Prompt Another: CNCC[C@H](Oc1cccc2ccccc12)c1cccs1
### Response 85.3

### Prompt Next molecule: COc1ccc2c(c1)CC[C@@H]1[C@@H]2CC[C@]2(C)C3C(=CC(COC(C)=O)C4C(=O)N(c5ccc(Cl)cc5)C(=O)C43)C[C@@H]12 (stereo partly drawn)
### Response 102

----------
Hi there, I'd appreciate the recorded growth for every entry that follows.
test system: HCT-116 colon; assay: NCI-60 one-dose screen, 48 h (100 = growth as untreated, 0 = no growth, -100 = all killed); details: 10 µM unless noted
The panel holds about 83,000 compounds, 20% with a hit somewhere; the sample as a whole holds those more often. Activity calls are given as the source filed them. The calls were made as follows: active = growth percent below 10; inactive = the rest.

### Prompt Which value of growth has been reported for CN(C)c1ccc(CNCCO)cc1 in the records?
### Response 72.1% (inactive)

### Prompt Another compound: COc1ccc(C(=O)/C=C/c2ccccc2)cc1S(N)(=O)=O
### Response 13.4% (inactive)

### Prompt Thanks! And CCN(CC)CCOc1ccc2ccc(=O)oc2c1 ?
### Response 100% (inactive)

### Prompt Request: CCOC(=O)c1c(NC(=O)c2ccccc2)sc2c3c(ccc12)OCN(C)C3
### Response -20.9% (active)

### Prompt Proceed to CCCn1c(=S)sc2c(NNC(C)=O)nc(C)nc21
### Response 95.3% (inactive)

### Prompt Quick one: Cn1c2ccccc2c2c3c(c4c5cc(Br)ccc5n(C)c4c21)C(=O)N(O)C3=O
### Response 4.46% (active)

### Prompt For CCOC(=O)C/C(=N\Nc1cc(=O)[nH]c2ccc(C)cc12)C(=O)OCC then?
### Response 99.7% (inactive)

### Prompt What would you report for Cc1cc(=O)n(C(=S)Nc2ccc(Cl)cc2)c2cc(O)ccc12 ?
### Response 96% (inactive)

### Prompt Follow-up entry: O=C1c2cccnc2C(=O)c2c1c(C(=O)OCCc1ccccn1)c1ccccn21
### Response -48.3% (active)

### Prompt Here is the next compound: CNC(=O)NCC1OC(n2cnc3c(NC(=O)Nc4ccccc4)ncnc32)C2OC(=O)CC12 (stereo unspecified)
### Response 98.7% (inactive)

### Prompt Quick one: CCn1cc(C(=O)O)c(=O)c2cc(F)c(N3CCN(CC(=O)Nc4ccccc4)C(C)C3)c(F)c21 (stereo unspecified)
### Response 99.9% (inactive)
